I'd appreciate it if you could supply EC50 values for the items below.
System: Cdc2 (Cdk1) tyrosine-15 phosphorylation in NCI-H1299 cells
method_summary: Inhibitory effect on Cdc2 (Cdk1) tyrosine-15 phosphorylation in cells (Pharmacological Test 2, NCI-H1299 method)
Type: cell-based
protocol_conditions: Homo sapiens, 200 nM camptothecin 16 hours, then test compound with nocodazole 8 hours, ELISA ratio of tyrosine-15-phosphorylated Cdc2 to Cdc2, read-out: Cdc2-Tyrosine 15 Phosphorylation Inhibiting Effect
One number for each entry, in nM.

{"columns": ["compound", "EC50, nM"],
 "data": [
  ["CN1CCN(c2ccc(Nc3ncc4c(=N)n(-c5c(Cl)cccc5Cl)c(=O)[nH]c4n3)cc2)CC1", 66],
  ["Cc1cc(Nc2ncc3c(=N)n(-c4c(Cl)cccc4Cl)c(=O)[nH]c3n2)ccc1N1CCN(C)CC1", 25],
  ["CN1CC2CCN(c3ccc(Nc4ncc5c(=N)n(-c6c(Cl)cccc6Cl)c(=O)[nH]c5n4)cc3)C2C1 (stereo not drawn)", 110],
  ["CN(C)CC1CN(c2ccc(Nc3ncc4c(=N)n(-c5c(Cl)cccc5Cl)c(=O)n(C)c4n3)cc2)CCO1 (stereo not drawn)", 34],
  ["CN1CCC2(CCCN(c3ccc(Nc4ncc5c(=N)n(-c6c(Cl)cccc6Cl)c(=O)[nH]c5n4)cc3)C2)C1 (stereo not drawn)", 110]
]}

Give measured EC50 for every item shown.
1. CN(C)[C@@H]1CCN(c2ccc(Nc3ncc4c(=N)n(-c5c(Cl)cccc5Cl)c(=O)[nH]c4n3)cc2)C1
2. Cn1c(=O)n(-c2c(Cl)cccc2Cl)c(=N)c2cnc(Nc3ccc(N4CCN(CCO)CC4)cc3)nc21
3. CN(C)CC(=O)N1CCN(c2ccc(Nc3ncc4c(=N)n(-c5c(Cl)cccc5Cl)c(=O)n(C)c4n3)cc2)CC1
4. Cn1c(=O)n(-c2c(Cl)cccc2Cl)c(=N)c2cnc(Nc3ccc(N4CCOC(CO)C4)cc3)nc21 (stereo not drawn)

1. 75
2. 71
3. 45
4. 86

###

I'd appreciate it if you could supply pIC50 values for the items below.
test_target: Wee1 kinase (Homo sapiens, UniProt P30291)
Sequence (P30291 whole entry): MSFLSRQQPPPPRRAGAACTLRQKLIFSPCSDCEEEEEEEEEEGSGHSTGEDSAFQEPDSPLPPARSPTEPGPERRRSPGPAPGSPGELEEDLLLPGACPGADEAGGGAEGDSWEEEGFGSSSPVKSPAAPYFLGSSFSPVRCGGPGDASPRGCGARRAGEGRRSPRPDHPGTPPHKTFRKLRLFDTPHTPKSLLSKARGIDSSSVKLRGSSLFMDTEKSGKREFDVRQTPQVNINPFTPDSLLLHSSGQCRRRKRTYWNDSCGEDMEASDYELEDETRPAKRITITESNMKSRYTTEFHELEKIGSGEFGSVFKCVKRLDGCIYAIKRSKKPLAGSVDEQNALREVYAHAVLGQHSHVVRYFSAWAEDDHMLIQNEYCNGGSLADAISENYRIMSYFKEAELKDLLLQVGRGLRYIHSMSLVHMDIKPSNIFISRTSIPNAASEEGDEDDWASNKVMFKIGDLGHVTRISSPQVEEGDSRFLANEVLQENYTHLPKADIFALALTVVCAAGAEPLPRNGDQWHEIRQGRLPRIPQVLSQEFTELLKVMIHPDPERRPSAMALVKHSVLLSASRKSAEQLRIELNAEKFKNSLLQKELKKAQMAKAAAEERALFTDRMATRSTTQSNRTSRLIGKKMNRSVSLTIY
method_summary: Wee1 kinase inhibitory effect (Pharmacological Test 1)
protocol_conditions: purified GST-tagged Wee1 kinase, Poly(Lys, Tyr) substrate, 10 μM ATP, 30° C. for 30 minutes; read-out: Weel Inhibition Activity (IC50)
Answers are plain numbers, as −log10 of the molar value.

Reference set (2 entries):
{"columns": ["compound", "pIC50"],
 "data": [
  ["CN(C)[C@@H]1CCN(c2ccc(Nc3ncc4c(=N)n(-c5c(Cl)cccc5Cl)c(=O)[nH]c4n3)cc2)C1 [Example 8]", 7.77],
  ["CN(C)CC1CN(c2ccc(Nc3ncc4c(=N)n(-c5c(Cl)cccc5Cl)c(=O)n(C)c4n3)cc2)CCO1 (stereo not drawn) [Example 4]", 8.00]
]}

Which value of pIC50 has been reported for Cn1c(=O)n(-c2c(Cl)cccc2Cl)c(=N)c2cnc(Nc3ccc(N4CCOC(CO)C4)cc3)nc21 (stereo not drawn) [Example 2] in the records?
8.70
